Reported values: IC50 for pepsin from coats of pig's stomach (Sus scrofa), one per item.
Non-standard residues stand in square brackets, D forms with d. Residues, ends and D or L forms follow the SMILES beside them. *: point of attachment. Sta = CC(C)C[C@H](N)[C@@H](O)CC(=O)O; Isovaleryl = CC(C)CC(=O)*

- compound: "CC(C)CC(=O)NC(C(=O)NC(C(=O)NC(CC(C)C)C(O)CC(=O)NC(C)C(=O)NC(Cc1ccccc1)C(O)CC(=O)O)C(C)C)C(C)C (centres unmarked)"
  IC50, nM: 10
- compound: "CC(C)CC(=O)N[C@H](C(=O)N[C@H](C(=O)N[C@@H](CC(C)C)[C@@H](O)CC(=O)N[C@@H](C)C(=O)N[C@@H](CC(C)C)[C@@H](O)CC(=O)O)C(C)C)C(C)C [pepstatin A] (Isovaleryl-VV[Sta]A[Sta]-OH)"
  IC50, nM: 3
